Ref: ChEMBL document CHEMBL1949589

assay: Plasma protein binding in rat at 20 uM after 1 hr by HPLC analysis; assay type: ADME, cell-free; settings: read-out: PPB (converted)
# reported fraction unbound at 1 h, 20 µM; entries follow
recorded.metric: fraction unbound at 1 h, 20 µM

molecule | assay.result
CNC(=O)c1c(I)c(NC(C)=O)c(I)c(C(=O)O)c1I | 0.9
Nc1nc(C(=O)N[C@@H](CO)C(=O)O)c(N)nc1C(=O)N[C@@H](CO)C(=O)O | 1
O=C(NCC(O)CO)c1nc(NC[C@H](O)CO)c(C(=O)NCC(O)CO)nc1NC[C@H](O)CO (stereo partly specified) | 0.94
Nc1nc(C(=O)NCC(O)CO)c(N)nc1C(=O)NCC(O)CO (stereo unspecified) | 0.98
O=C(NCC(O)CO)c1nc(NC[C@@H](O)CO)c(C(=O)NCC(O)CO)nc1NC[C@@H](O)CO (stereo partly specified) | 0.96
Nc1nc(C(=O)N[C@H](CO)C(=O)O)c(N)nc1C(=O)N[C@H](CO)C(=O)O | 1
Nc1nc(C(=O)NCCO)c(N)nc1C(=O)NCCO | 0.88
CCCNc1nc(C(=O)N[C@H](CO)C(=O)O)c(NCCC)nc1C(=O)N[C@H](CO)C(=O)O | 0.26
Nc1nc(C(=O)N[C@H](CC(=O)O)C(=O)O)c(N)nc1C(=O)N[C@H](CC(=O)O)C(=O)O | 1
NC(=O)c1nc(NC[C@H](O)CO)c(C(N)=O)nc1NC[C@H](O)CO | 0.85
O=C(N[C@H](CO)C(=O)O)c1nc(NC[C@H](O)CO)c(C(=O)N[C@H](CO)C(=O)O)nc1NC[C@H](O)CO | 1
